Hello, the source for this data is PubChem BioAssay AID1159580, in case you need it.

# procedure details: chemical genetic growth profiling, strain panel (AID 1159580);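 note: tested at 20 µM; growth read once vehicle control cultures reached saturation at 30 °C; 1 = growth at the plate median or of vehicle wells; lower values mean less growth of the strain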
# test conditions: S. cerevisiae deletion strains, growth OD, locus YNL006W, strain LST8, hits give low values
Screen size: about 5,500 compounds; about 2,000 (36%) were called active. About 18% were inconclusive and are not listed. This is one part of the list.
Could you mark each record condition met if its normalized growth falls strictly under 0.9, and condition not met if it equals or exceeds it?

smiles repr	class assignment
O=C(Nc1ccncc1)c1cc(-c2ccccc2)oc1C(F)(F)F	condition not met
O=[N+]([O-])c1ccsc1Oc1cccc(C(F)(F)F)c1	condition not met
Cn1nccc1-c1cc(Cl)cc(Cl)c1O	condition not met
Clc1ccc(-c2cnc(Nc3cc(Cl)cc(Cl)c3)s2)cc1	condition met
Clc1cc(Cl)cc(C=NCc2ccccc2)c1	condition not met

###

# procedure details: chemical genetic growth profiling, strain panel (AID 1159580)
# test conditions: S. cerevisiae deletion strains, growth OD, locus YOL012C, strain htz1
Screen size: about 5,500 compounds; about 2,000 (36%) were called active. Inconclusive results (about 18%) are left out. Some of the results follow.
Form field: normalized growth (one value per entry).

compound	normalized growth
CCC(C)C(=O)c1c(O)c(C)c2oc3c(C)c(O)c(C(=O)C(C)CC)c(O)c3c2c1O (stereo unspecified)	0.792 (inactive)
CC(=O)O[C@@H]1CC2C(C)(C)C(=O)C3OC3[C@]2(C)C2CC[C@@]3(C)[C@H](c4ccoc4)OC(=O)C4OC43[C@@]21C (stereo partly specified)	0.75 (inactive)
OC[C@H]1O[C@@H](n2cnc3c(NCc4ccco4)ncnc32)[C@H](O)[C@@H]1O	2.36 [resistant] (active)
CC(=O)O[C@@H]1CC2C(C)(C)[C@@H](O)CC[C@]2(C)C2CC[C@@]3(C)[C@H](c4ccoc4)OC(=O)[C@H]4O[C@]43[C@@]21C (stereo partly specified)	1.11 (inactive)
NCCCCC(=O)O	0.929 (inactive)
NCCCC(=O)O	1.29 (inactive)
CC(=O)O[C@H]1C[C@@]2(C)[C@@H](C[C@@H](O)C3[C@]2(C)CC[C@H]2[C@H](C)[C@H](O)CC[C@]32C)/C1=C(/CCC=C(C)C)C(=O)O (stereo partly specified)	1.07 (inactive)
C[C@]12CCC3C(CC[C@H]4C[C@@H](O)CC[C@]34C)C1CC[C@@H]2O (stereo partly specified)	1.81 (inactive)
COc1ccc(-c2cc(=O)c3c(OC)cc(OC)cc3o2)cc1	1.8 (inactive)
CC(C)=CC1C(C(=O)OCc2cccc(Oc3ccccc3)c2)C1(C)C (stereo unspecified)	1.31 (inactive)
O=c1[nH]c(=O)n(C2C[C@H](O)[C@@H](CO)O2)cc1C(F)(F)F (stereo partly specified)	0.749 (inactive)
CCCCCCCCCCCCCC(=O)OC1C(C)C2(O)C(C=C(CO)CC3(O)C(=O)C(C)=CC32)C2C(C)(C)C12OC(C)=O (stereo unspecified)	0.932 (inactive)
C=C[C@@]1(C)CC(=O)[C@@]2(O)[C@](C)(O1)[C@@H](OC(C)=O)[C@@H](O)C1C(C)(C)CC[C@H](O)[C@@]12C (stereo partly specified)	1.15 (inactive)
Clc1ccc(C(c2ccccc2Cl)C(Cl)Cl)cc1 (stereo unspecified)	0.884 (inactive)
CC(=O)O[C@H]1CC[C@@]2(C)C(C[C@@H](OC(C)=O)[C@]3(C)C2CC[C@@]2(C)[C@H](c4ccoc4)OC(=O)[C@H]4O[C@]423)C1(C)C (stereo partly specified)	0.707 (inactive)
C[C@]12CCC3C(CC[C@H]4C[C@H](O)CC[C@]34C)C1CC[C@@H]2O (stereo partly specified)	1.56 (inactive)

###

# procedure details: chemical genetic growth profiling, strain panel (AID 1159580)
# test conditions: S. cerevisiae deletion strains, growth OD, locus YNL020C, strain ARK1, hits give low values
Screen size: about 5,500 compounds; about 2,000 (36%) were called active. Inconclusive results (about 18%) are left out. Some of the results follow.
# normalized growth values compiled below

smiles repr	normalized growth
C[C@@H](Nc1ncnc2sc3c(c12)CCCC3)c1ccccc1	0.915
O=C(Oc1ccc2ccccc2c1C1SCCS1)c1ccc([N+](=O)[O-])o1	0.917
N#CC(C#N)=Cc1c(-c2ccccc2Cl)[nH]c2ccccc12	0.882
O=S(=O)(Nc1cc(Cl)c(Cl)cc1Cl)c1cc(C(F)(F)F)cc(C(F)(F)F)c1	0.89

###

# procedure details: chemical genetic growth profiling, strain panel (AID 1159580);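 note: tested at 20 µM; growth read once vehicle control cultures reached saturation at 30 °C; 1 = growth at the plate median or of vehicle wells; lower values mean less growth of the strain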
# test conditions: S. cerevisiae deletion strains, growth OD, locus YEL037C, strain rad23
Out of some 5,500 compounds screened, about 2,000 (36%) were called active. Not shown: some 18% with an inconclusive outcome. No stated cut-off is given here; in the data, active means normalized growth mostly below about 0.91 (no sharp cut-off); inconclusive means no clear call, values can overlap the other calls; inactive means mostly above about 0.92. The list shows a part of the results.
Classes used: active, inactive

molecule	class assignment
O=C(O)C1CCCNC1 (centres undefined)	inactive
CCCCCCCCCCCCCC(=O)OC1C(C)C2(O)C(C=C(CO)CC3(O)C(=O)C(C)=CC32)C2C(C)(C)C12OC(C)=O (centres undefined)	inactive
CC(=O)O[C@@H]1CC2C(C)(C)C(=O)C3OC3[C@]2(C)C2CC[C@@]3(C)[C@H](c4ccoc4)OC(=O)C4OC43[C@@]21C (some centres undefined)	inactive
CC1OC(O[C@H]2/C=C/C=C/C=C/C=C/C=C/C=C/C=C/[C@H](C)[C@@H](O)[C@@H](C)[C@H](C)OC(=O)CC(O)CC(O)CCC(O)C(O)CC(O)C[C@]3(O)C[C@H](O)C(C(=O)O)C(C2)O3)C(O)[C@H](N)C1O (some centres undefined)	active
C=C[C@@]1(C)CC(=O)[C@@]2(O)[C@](C)(O1)[C@@H](OC(C)=O)[C@@H](O)C1C(C)(C)CC[C@H](O)[C@@]12C (some centres undefined)	inactive
C=C1C(=O)[C@]23[C@H](O)[C@H]1CC[C@H]2[C@@]12CO[C@]3(O)[C@H](O)[C@@H]1C(C)(C)CC[C@@H]2O	inactive
CC1C/C=C/C=C/C=C/C=C/C(O[C@@H]2O[C@H](C)[C@@H](O)[C@H](N)[C@@H]2O)CC2OC(O)(CC(O)CC3OC3/C=C/C(=O)O1)CC(O)C2C(=O)O (some centres undefined)	inactive
C1N2CN3CN1CN(C2)C3	inactive
CCN1C[C@@]2(COC)C3[C@@H](OC)[C@H]4[C@@H]1[C@]3(C(OC)C[C@H]2O)C1C[C@@]2(O)[C@H](OC(=O)c3ccccc3)C1[C@]4(OC(C)=O)[C@@H](O)[C@@H]2OC (some centres undefined)	inactive

###

# procedure details: chemical genetic growth profiling, strain panel (AID 1159580);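 note: tested at 20 µM; growth read once vehicle control cultures reached saturation at 30 °C; 1 = growth at the plate median or of vehicle wells; lower values mean less growth of the strain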
# test conditions: S. cerevisiae deletion strains, growth OD, locus YNL298W, strain CLA4
Hit rate of the full screen: of about 5,500 compounds, about 2,000 (36%) were called active. Roughly 18% stayed inconclusive and do not appear here. No stated cut-off is given here; in the data, active means normalized growth mostly below about 0.91 (no sharp cut-off); inconclusive means no clear call, values can overlap the other calls; inactive means mostly above about 0.92. The list shows a part of the results.
Labels: true for active, false for inactive

compound	class assignment
Cc1onc(-c2ccccc2)c1-c1ccc(S(N)(=O)=O)cc1	false
CC(C)c1nc(N(C)S(C)(=O)=O)nc(-c2ccc(F)cc2)c1/C=C/[C@@H](O)C[C@@H](O)CC(=O)O	false
COC[C@]12CN(C=O)C3[C@@H]4[C@H](OC)C1[C@]3(C1CC3(O)C(OC)C(O)C4(OC(C)=O)C1C3OC(=O)c1ccccc1)[C@@H](OC)C[C@H]2O (stereo partly drawn)	false
Oc1c(Cl)cc(Cl)c(Cl)c1Cc1c(O)c(Cl)cc(Cl)c1Cl	true
COc1ccc2c(=O)c(OC)c(-c3ccccc3)oc2c1	true
CCCNC(=O)NS(=O)(=O)c1ccc(Cl)cc1	false
Cc1cc(CC(=O)O)n(C)c1C(=O)c1ccc(Cl)cc1	false
COc1ccc2oc3ccccc3c(=O)c2c1	true

###

# procedure details: chemical genetic growth profiling, strain panel (AID 1159580);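 note: tested at 20 µM; growth read once vehicle control cultures reached saturation at 30 °C; 1 = growth at the plate median or of vehicle wells; lower values mean less growth of the strain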
# test conditions: S. cerevisiae deletion strains, growth OD, locus YOR290C, strain snf2, hits give low values
In all, about 5,500 compounds went through this assay and about 2,000 (36%) were called active. Inconclusive results (about 18%) are left out. The list shows a part of the results.
recorded endpoint: normalized growth

compound	recorded value
COC(=O)[C@H](c1ccccc1Cl)N1CCc2sccc2C1	1.02
C[C@]12C=CC(=O)C=C1CCC1C2[C@@H](O)C[C@@]2(C)C1CC[C@]2(O)C(=O)CO (some centres undefined)	0.997
CC(O)(P(=O)(O)O)P(=O)(O)O	0.916
NCC[C@@H](O)C(=O)N[C@@H]1C[C@H](N)[C@@H](O[C@H]2O[C@H](CN)[C@@H](O)[C@H](O)[C@H]2O)[C@H](O)[C@H]1O[C@H]1O[C@H](CO)[C@@H](O)[C@H](N)C1O (some centres undefined)	1.04
COC(=O)[C@@H]1OC(=O)C2OC23[C@@]1(C)CCC1[C@@]2(C)CCC(=O)C(C)(C)C2C[C@@H](OC(C)=O)[C@]13C (some centres undefined)	1.02
CC1(C)C(=O)[C@@H]2O[C@@H]2[C@@]2(C)C1C[C@@H](O)[C@]1(C)C2CC[C@@]2(C)[C@H](c3ccoc3)OC(=O)C3OC321 (some centres undefined)	0.968
COC(=O)C1=COC(C)C2CN3CCC4(C(=O)Nc5ccccc54)C3CC12 (centres undefined)	1.02
CC1CCC(NC(=O)N(CCCl)N=O)CC1 (centres undefined)	0.853
Clc1ccc(CSC(Cn2ccnc2)c2ccc(Cl)cc2Cl)cc1 (centres undefined)	0.0745
CC(=O)O[C@@H]1CC2C(C)(C)[C@H](O)CC[C@]2(C)C2CC[C@@]3(C)[C@H](c4ccoc4)OC(=O)C4OC43[C@@]21C (some centres undefined)	0.985
CC(=O)OC/C=C(\C)CC/C=C(\C)CC/C=C(\C)CC/C=C(\C)CC/C=C(\C)CC/C=C(\C)CC/C=C(\C)CC/C=C(\C)CCC=C(C)C	0.941
C=C1C(=O)[C@]23[C@H](O)[C@H]1CC[C@H]2[C@@]12CO[C@]3(O)[C@H](O)[C@@H]1C(C)(C)CC[C@@H]2O	0.996
NCCCCCC(=O)O	0.992
O=C(O)C(O)C(O)C(=O)O (centres undefined)	1.02
N[C@@H](C(=O)O)[C@@H](O)[C@H](O)[C@H](O)CO	1.02
CC(=O)O[C@@H]1CC2C(C)(C)[C@@H](O)CC[C@]2(C)C2CC[C@@]3(C)[C@H](c4ccoc4)OC(=O)[C@H]4O[C@]43[C@@]21C (some centres undefined)	0.978
O=C(O)C1CCCNC1 (centres undefined)	1.02
CC(=O)O[C@@H]1CC2C(C)(C)[C@H](O)C=C[C@]2(C)C2CC[C@@]3(C)[C@H](c4ccoc4)OC(=O)C4OC43[C@@]21C (some centres undefined)	0.982
COP(=S)(OC)Oc1ccc(Sc2ccc(OP(=S)(OC)OC)cc2)cc1	1
Fc1ccc([C@@H]2CCNC[C@H]2COc2ccc3c(c2)OCO3)cc1	1.03
NC1(C(=O)O)CC1	1.06
CC(C)(S)[C@@H](N)C(=O)O	1.04
Cc1cccc(C)c1NC(=O)C1CCCCN1C (centres undefined)	0.999
NC1(C(=O)O)CCCC1	1.02
O=NN(CCCl)C(=O)NCCCl	0.872
O=C(O)COc1ccc(Cl)cc1Cl	1
Clc1ccc(COC(Cn2ccnc2)c2ccc(Cl)cc2Cl)c(Cl)c1 (centres undefined)	0.0739
CC(C)c1nc(N(C)S(C)(=O)=O)nc(-c2ccc(F)cc2)c1/C=C/[C@@H](O)C[C@@H](O)CC(=O)O	1
Clc1ccccc1CN1CCc2sccc2C1	1
